- Test system: A549 NSCLC
- methodSummary: NCI tumour cell line growth inhibition, 48 h

{"compound": "O=c1c2cc(F)ccc2sc2c(NCCCNCCO)nc3ccccc3c12", "TGI": "3.78 µM"}
{"compound": "COc1cc2c3c([nH]c2c(OC)c1OC)CCN(Cc1ccccc1)C3", "TGI": "> 100 µM"}
{"compound": "Oc1cc(-n2cccn2)c(O)cc1-n1cccn1", "TGI": "> 100 µM"}
{"compound": "COc1cc2ncc3c(nc4sccn43)c2cc1OC", "TGI": "> 100 µM"}
{"compound": "CC1CC(C#N)=C2NCCN2C1=O (configuration not stated)", "TGI": "> 100 µM"}
{"compound": "COc1cc(/C=C/c2ccc3c(Br)cc(Br)c(O)c3n2)ccc1O", "TGI": "12.9 µM"}
{"compound": "O=C(O)c1cc(CCc2cc(O)ccc2O)ccc1O", "TGI": "> 100 µM"}

----------
- Test system: SW-620 colon
- methodSummary: NCI tumour cell line growth inhibition, 48 h

{"molecule": "C[N+](C)(C)c1ncnc2c1ncn2C1CCCO1 (centres undefined)", "TGI": "> 100 µM"}
{"molecule": "NC(Cc1ccc(S(=O)(=O)O)cc1)C(=O)NC(Cc1ccc(S(=O)(=O)O)cc1)C(=O)NC(Cc1ccc(S(=O)(=O)O)cc1)C(=O)NC(Cc1ccc(S(=O)(=O)O)cc1)C(=O)O (centres undefined)", "TGI": "> 100 µM"}
{"molecule": "CCC(=O)Nc1ccc(N2C(=O)/C(=C/c3ccc(OC)cc3)N=C2c2ccccc2)cc1", "TGI": "> 50 µM"}
{"molecule": "CCOC(=O)c1cc2c(cc1Cl)SC(=Nc1ccccc1)N(S(=O)(=O)c1ccc(Br)s1)S2(=O)=O", "TGI": "34.3 µM"}
{"molecule": "C=C(C)[C@@H]1CC[C@]2(C(=O)OC)CC[C@]3(C)[C@H](CC[C@@H]4[C@@]5(C)CC[C@H](O)C(C)(C)[C@@H]5CC[C@]43C)[C@@H]12", "TGI": "38.8 µM"}
{"molecule": "O=C1c2c(Br)sc(Br)c2[C@@H](NC(=O)C(F)(F)F)C1Br (some centres undefined)", "TGI": "> 21.9 µM"}
{"molecule": "Cc1ccccc1C(=O)C1CCCCC1O (centres undefined)", "TGI": "> 100 µM"}
{"molecule": "CSc1c(C#N)c(N)n(-c2ccc(Cl)cc2)c(=O)c1C#N", "TGI": "> 100 µM"}
{"molecule": "COC(=O)C(Cc1c[nH]c2ccccc12)N=C1Nc2ccncc2S(=O)(=O)N1c1cccc(OC(C)C)c1 (centres undefined)", "TGI": "> 100 µM"}

----------
- Tested on: ACHN renal
- methodSummary: NCI tumour cell line growth inhibition, 48 h; in the data active means GI50 below about 0.43 µM; inactive means the rest
Classes used: active, inactive

{"compound": "COc1ccc2c(-c3ccnc(Nc4cccc(OC(F)(F)F)c4)n3)cnn2n1", "classLabel": "inactive"}
{"compound": "Nc1n[nH]c2ccc([C@@H]3Nc4cc5c(cc4[C@H]4C6CCC(C6)[C@@H]34)C(=O)NC5)cc12 (some centres not stated)", "classLabel": "inactive"}
{"compound": "CC1c2ccccc2CCN1c1ccc(CO)c(Cl)c1 (configuration not stated)", "classLabel": "inactive"}
{"compound": "c1cc(N2CCN(c3ccc(C4=NCCCN4)cc3)CC2)ccc1C1=NCCCN1", "classLabel": "inactive"}
{"compound": "Oc1cccc2c1NCCC2", "classLabel": "active"}
{"compound": "COc1cc2cc(Oc3ccc(NC(=O)c4ccc(Cl)c(Cl)c4)cc3)c(C)nc2cc1OC", "classLabel": "inactive"}
{"compound": "COC(=O)c1cc(-c2ccc(OC)c(OC)c2)[nH]c1N/N=C/c1c(Cl)cccc1Cl", "classLabel": "inactive"}
{"compound": "CCOC(=O)c1cc2c(cc1Cl)SC(=Nc1ccccc1)N(S(=O)(=O)c1ccc(Br)s1)S2(=O)=O", "classLabel": "inactive"}
{"compound": "Cc1ccncc1C(N)=O", "classLabel": "inactive"}
{"compound": "COc1ccc(/C=C(\\C)[N+](=O)[O-])cc1OC", "classLabel": "inactive"}
{"compound": "C[n+]1c2ccccc2nc2c(N)cc(N)cc21", "classLabel": "inactive"}
{"compound": "COc1cc(C(=O)c2cc(C)c3[nH]c4ccc(O)cc4c3c2C)cc(OC)c1OC", "classLabel": "active"}

----------
- Test system: RPMI-8226 leukemia
- methodSummary: NCI tumour cell line growth inhibition, 48 h
log10 of TGI values, listed per item
readoutName: log10 of TGI (log10 of the value in µM)

{"compound": "O=[N+]([O-])c1ccc(C(O)(C#CCN2CCCC2)c2ccccc2)cc1 (stereo not drawn)", "log10 of TGI": 1.79}
{"compound": "COc1cc2ncc3c(nc4sccn43)c2cc1OC", "log10 of TGI": 1.95}
{"compound": "O=C(c1ccccc1)c1c(CC(O)c2ccncc2)n(C(=O)c2ccccc2)c2ccccc12 (stereo not drawn)", "log10 of TGI": 1.66}
{"compound": "CCOC(=O)C1CCCCN1C(=O)Cc1c[nH]c2ccccc12 (stereo not drawn)", "log10 of TGI": 1.81}
{"compound": "CCc1ccc2c(c1)N(CC(C)CN(C)C)c1ccccc1S2 (stereo not drawn)", "log10 of TGI": 0.80}
{"compound": "Cc1ccccc1-n1c(N)c(-c2nc3ccccc3[nH]2)sc1=S", "log10 of TGI": 1.79}
{"compound": "N[C@H](COCc1ccccc1)c1ccccc1", "log10 of TGI": 1.66}
{"compound": "COc1cccc(C(=O)C#Cc2cnc(OC)nc2OC)c1", "log10 of TGI": 0.81}
{"compound": "OC(c1cccnc1Cl)c1nc2ccccc2c2ccnc(Cl)c12 (stereo not drawn)", "log10 of TGI": 0.93}
{"compound": "CN=C(Nc1cccc(C(F)(F)F)c1)SCc1ccc(N=C=S)cc1", "log10 of TGI": 1.66}
{"compound": "O=C(/C=C/c1ccc(Cl)c(Cl)c1)c1cccc2ccccc12", "log10 of TGI": 0.93}

----------
- Test system: M14 melanoma
- methodSummary: NCI tumour cell line growth inhibition, 48 h

{"compound": "CN=C1OC2(c3ccccc3)C3=C(OC(=NC)N2C)C(=O)OC3(c2ccccc2)N1C (centres undefined)", "experimentalSystem": "M14 melanoma", "displayUnit": "µM", "comparisonSign": ">", "TGI": 100}
{"compound": "Nc1ncnc2c1ncn2[C@@H]1O[C@H](COC(c2ccccc2)(c2ccccc2)c2ccccc2)[C@@H](OC(=S)Oc2ccccc2)[C@@H]1F", "experimentalSystem": "M14 melanoma", "displayUnit": "µM", "comparisonSign": "=", "TGI": 21}
{"compound": "CN1CCN(CCCCCN=c2cc3c(=O)n(CCCCCN4CCN(C)CC4)c(=O)c4c(NCCCCCN5CCN(C)CC5)cc5c(O)n(CCCCCN6CCN(C)CC6)c(=O)c2c5c4-3)CC1", "experimentalSystem": "M14 melanoma", "displayUnit": "µM", "comparisonSign": ">", "TGI": 100}
{"compound": "O=C1c2ccccc2N2OC3(N4CCCC4)CCCCC3C12c1ccccc1 (centres undefined)", "experimentalSystem": "M14 melanoma", "displayUnit": "µM", "comparisonSign": "=", "TGI": 34.6}
{"compound": "CC(C)(C)c1cc2nc(c1)C(C(F)(F)F)(C(F)(F)F)OB(Br)OC2(C(F)(F)F)C(F)(F)F", "experimentalSystem": "M14 melanoma", "displayUnit": "µM", "comparisonSign": "=", "TGI": 3.38}
{"compound": "Nc1nc2c(C(=O)O)c3ccc([N+](=O)[O-])cc3c(=O)n2c2ccccc12", "experimentalSystem": "M14 melanoma", "displayUnit": "µM", "comparisonSign": "=", "TGI": 64.2}
{"compound": "CCOc1ccc(NC(=O)CCc2nnc(SC)o2)cc1", "experimentalSystem": "M14 melanoma", "displayUnit": "µM", "comparisonSign": ">", "TGI": 100}
{"compound": "Nc1nc(N)c(CCCCc2ccccc2)c(N)n1", "experimentalSystem": "M14 melanoma", "displayUnit": "µM", "comparisonSign": ">", "TGI": 100}
{"compound": "O=C(c1ccco1)N(C(=O)N1CCN(c2ccccc2)CC1)S(=O)(=O)c1ccccc1", "experimentalSystem": "M14 melanoma", "displayUnit": "µM", "comparisonSign": "=", "TGI": 60.4}

----------
- Test system: SR leukemia
- methodSummary: NCI tumour cell line growth inhibition, 48 h
readoutName: TGI

{"compound": "O=C1C=C(O)C(=Cc2c(O)cc(O)cc2O)C(O)=C1", "readoutName": "TGI", "experimentalValue": "> 100 µM"}
{"compound": "CC1(C)CC(=O)c2c(nc3c4c([nH]c(-c5ccc(Br)cc5)c24)CC(C)(C)C3)C1", "readoutName": "TGI", "experimentalValue": "59.1 µM"}
{"compound": "Clc1ccc2oc(CCc3ccccc3)nc2c1", "readoutName": "TGI", "experimentalValue": "> 100 µM"}
{"compound": "COc1ccc(Nc2ccnc(N3CCN(c4ccnc5cc(Cl)ccc45)CC3)n2)cc1", "readoutName": "TGI", "experimentalValue": "6.88 µM"}
{"compound": "CO/N=C1/c2sccc2[C@H](NC(=O)C(Cc2ccccc2)NC(=O)OC(C)(C)C)[C@@H]1O (stereo partly specified)", "readoutName": "TGI", "experimentalValue": "> 100 µM"}
{"compound": "O=C(c1ccco1)N(C(=O)N1CCN(c2ccccc2)CC1)S(=O)(=O)c1ccccc1", "readoutName": "TGI", "experimentalValue": "51.4 µM"}
{"compound": "O=Cc1ccc2c(c1I)OCO2", "readoutName": "TGI", "experimentalValue": "> 100 µM"}
{"compound": "COc1ccc(C2=NOC(N)(c3ccc(OC)cc3)C2)cc1 (stereo unspecified)", "readoutName": "TGI", "experimentalValue": "> 100 µM"}
{"compound": "Nc1n[nH]c2ccc([C@@H]3Nc4cc5c(cc4[C@H]4C6CCC(C6)[C@@H]34)C(=O)NC5)cc12 (stereo partly specified)", "readoutName": "TGI", "experimentalValue": "> 100 µM"}
{"compound": "O=C(Nc1ccccc1OC(=O)c1ccccc1)c1ccccc1", "readoutName": "TGI", "experimentalValue": "> 100 µM"}
{"compound": "COC(=O)Cc1c(-c2c(CC(=O)OC)c3ccccc3n2C2OC(COC(C)=O)C(OC(C)=O)C(OC(C)=O)C2OC(C)=O)[nH]c2ccccc12 (stereo unspecified)", "readoutName": "TGI", "experimentalValue": "> 100 µM"}
{"compound": "CCOc1ccc(NC(=O)CCc2nnc(SC)o2)cc1", "readoutName": "TGI", "experimentalValue": "> 100 µM"}
{"compound": "CC1C=CC(OC(=O)C(C)(O)CCC(O)(C(=O)OC2CC(O)C(C(C)C)CC2(C)O)C(C)C)(C(C)C)CC1 (stereo unspecified)", "readoutName": "TGI", "experimentalValue": "46.3 µM"}
{"compound": "C[CH2][Hg][S]c1ccccc1C(=O)O", "readoutName": "TGI", "experimentalValue": "3.75 µM"}
{"compound": "Cc1cc(NS(=O)(=O)c2ccc(NC(=O)c3cccc4c(Nc5ccc(S(N)(=O)=O)cc5)c5ccccc5nc34)cc2)no1", "readoutName": "TGI", "experimentalValue": "> 100 µM"}
{"compound": "COC(=O)C(C(=O)C(=O)Nc1ccc([N+](=O)[O-])cc1)c1nc2ccc([N+](=O)[O-])cc2[nH]c1=O (stereo unspecified)", "readoutName": "TGI", "experimentalValue": "> 100 µM"}
{"compound": "O=C(NNS(=O)(=O)c1ccc(Cl)cc1Cl)c1cccnc1Nc1ccc(Cl)cc1", "readoutName": "TGI", "experimentalValue": "38.1 µM"}
{"compound": "Nc1nc(N)c(CCCCc2ccccc2)c(N)n1", "readoutName": "TGI", "experimentalValue": "> 100 µM"}
{"compound": "COc1cc2cc(Oc3ccc(NC(=O)c4ccc(Cl)c(Cl)c4)cc3)c(C)nc2cc1OC", "readoutName": "TGI", "experimentalValue": "> 100 µM"}
{"compound": "C=CCC1(C)CCCN(Cc2ccccc2)C1=O (stereo unspecified)", "readoutName": "TGI", "experimentalValue": "> 10 µM"}
{"compound": "CCC1C(c2ccccc2O)c2cc3c(cc2OC1N1CCOCC1)OCO3 (stereo unspecified)", "readoutName": "TGI", "experimentalValue": "30.8 µM"}
